Values compiled from ChEMBL document CHEMBL1649196.

# System: Mycoplasmoides pneumoniae
# measurement.notes: Antimicrobial activity against Mycoplasma pneumoniae isolated from human by two fold serial dilution method
# Assay type: functional
Listed here are compounds together with their documented MIC50.

structure.as.smiles | unit.annotation | MIC50
CC[C@H]1OC(=O)[C@H](C)[C@@H](O[C@H]2C[C@@](C)(OC)[C@@H](O)[C@H](C)O2)[C@H](C)[C@@H](O[C@@H]2O[C@H](C)C[C@H](N(C)C)[C@H]2O)[C@](C)(O)C[C@@H](C)CN(C)[C@H](C)[C@@H](O)[C@]1(C)O | ng/mL | 0.25
CC[C@H]1OC(=O)[C@@](C)(F)C(=O)[C@H](C)[C@@H](O[C@@H]2O[C@H](C)C[C@H](N(C)C)[C@H]2O)[C@](C)(OC)C[C@@H](C)C(=O)[C@H](C)[C@H]2N(CCCCn3cc(-c4cccc(N)c4)nn3)C(=O)O[C@]12C | ng/mL | 0.032
C[C@H]1COc2c(N3CCN(C)CC3)c(F)cc3c(=O)c(C(=O)O)cn1c23.C[C@H]1COc2c(N3CCN(C)CC3)c(F)cc3c(=O)c(C(=O)O)cn1c23.O | ng/mL | 500
CC(=O)NC[C@H]1CN(c2ccc(N3CCOCC3)c(F)c2)C(=O)O1 | ng/mL | 64000
C[C@H]1c2cccc(O)c2C(=O)C2=C(O)[C@]3(O)C(=O)C(C(N)=O)=C(O)[C@@H](N(C)C)[C@@H]3[C@@H](O)[C@@H]21.O | ng/mL | 125
CC[C@H]1OC(=O)[C@H](C)C(=O)[C@H](C)[C@@H](O[C@@H]2O[C@H](C)C[C@H](N(C)C)[C@H]2O)[C@](C)(OC)C[C@@H](C)C(=O)[C@H](C)[C@H]2N(CCCCn3cnc(-c4cccnc4)c3)C(=O)O[C@]12C | ng/mL | 0.25
